Biological target: CB1 receptor (hCB1) (Homo sapiens, UniProt P21554)
Construct: expressed in transfected cells; host or cells: Xenopus laevis oocytes (cRNA injection)
Sequence (P21554 whole entry): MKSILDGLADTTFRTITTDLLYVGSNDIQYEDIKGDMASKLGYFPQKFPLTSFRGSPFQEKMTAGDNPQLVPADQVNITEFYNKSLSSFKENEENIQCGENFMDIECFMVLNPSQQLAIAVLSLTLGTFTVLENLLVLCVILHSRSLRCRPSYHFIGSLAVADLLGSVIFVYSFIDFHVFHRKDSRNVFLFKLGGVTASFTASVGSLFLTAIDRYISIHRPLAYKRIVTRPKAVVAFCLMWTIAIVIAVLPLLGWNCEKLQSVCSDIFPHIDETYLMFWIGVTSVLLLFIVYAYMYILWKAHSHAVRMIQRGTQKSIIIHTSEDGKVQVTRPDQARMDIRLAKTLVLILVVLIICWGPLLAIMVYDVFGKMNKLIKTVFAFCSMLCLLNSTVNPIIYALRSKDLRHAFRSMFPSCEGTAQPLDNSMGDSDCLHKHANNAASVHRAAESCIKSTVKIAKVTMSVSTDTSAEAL
Assay: Two-electrode voltage-clamp, CB1-GIRK1/GIRK2-RGS4 coupling system expressed in Xenopus oocytes
Assay type: cell-based
Details: IC50 of blocking CB1 receptor activated by WIN55,212-2, 0.1 μM WIN + OS
parameter: IC50 (µM)
State just the number; it will be interpreted in µM.

Lookup: Which measured IC50 value corresponds to CCCCCCCC/C=C\CCCCCCCC(=O)NCCc1c[nH]c2ccc(O)cc12 ?
Found: 6.5

* * *

Molecular target: CB2 receptor (hCB2) (Homo sapiens)
Construct: expressed in transfected cells; host or cells: Xenopus laevis oocytes (cRNA injection)
Sequence (P34972 whole entry): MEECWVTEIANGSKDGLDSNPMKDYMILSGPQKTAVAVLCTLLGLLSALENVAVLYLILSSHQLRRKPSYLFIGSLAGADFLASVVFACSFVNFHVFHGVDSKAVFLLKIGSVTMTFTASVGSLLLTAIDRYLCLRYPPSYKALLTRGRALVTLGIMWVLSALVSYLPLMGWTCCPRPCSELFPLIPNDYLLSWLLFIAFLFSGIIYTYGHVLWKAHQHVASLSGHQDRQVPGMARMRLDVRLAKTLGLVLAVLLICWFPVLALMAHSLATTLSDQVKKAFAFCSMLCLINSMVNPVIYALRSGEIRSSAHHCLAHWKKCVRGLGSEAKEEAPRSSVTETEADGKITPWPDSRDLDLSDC
Assay: Two-electrode voltage-clamp, CB2-GIRK1/GIRK2-RGS4 coupling system expressed in Xenopus oocytes
Assay type: cell-based
Details: IC50 of blocking CB2 receptor activated by WIN55,212-2, 1 μM WIN + OS
parameter: IC50 (µM)
All answers are understood in µM, so give the number only.

Lookup: Hello, I am looking for reported IC50 with CB2 receptor (hCB2) (Homo sapiens) for CCCCCCCC/C=C\CCCCCCCC(=O)NCCc1c[nH]c2ccc(O)cc12 [OS, oleoyl serotonin] . Could you help?
Found: 10.4
